src = PubChem BioAssay (NCI)

Provide the reported TGI of each item.
Tested on: 786-0 renal
Experiment: NCI tumour cell line growth inhibition, 48 h

// query So what's the measured TGI for this one? `CCC(=O)Nc1ccc(N2C(=O)/C(=C/c3ccc(OC)cc3)N=C2c2ccccc2)cc1`
// result > 50 µM

// query So what's the measured TGI for this one? CC[C@@]1(O)C(=O)OCc2c1cc1n(c2=O)Cc2c-1nc1ccccc1c2/C=N\NC(=O)C(N)CCSC (some centres undefined)
// result 1.92 µM

// query So what's the measured TGI for this one? `COc1ccc2c3c1O[C@H](c1ccc(O)cc1)[C@H]3[N+](C)(C)CC2`
// result > 100 µM

// query So what's the measured TGI for this one? `COc1cccc(Oc2ccccc2NC(=O)CNC(=O)c2cccc3ccccc23)c1`
// result > 25 µM
